test system: OVCAR-5; assay: NCI tumour cell line growth inhibition, 48 h
Activity calls are given as the source filed them. Cut-off read from the data, not from the text of the source: active = GI50 up to about 1.1 µM and inactive = higher.
Some molecules, each annotated with its measured GI50.
OUTCOME MEASURE: GI50

# MOLECULE, VALUE
records = [
    ("CCOC(=O)NC(=O)c1cn(CCOC(=O)CCCCCCCCC(=O)OCCn2cc(C(=O)NC(=O)OCC)c(=O)[nH]c2=O)c(=O)[nH]c1=O", "> 100 µM (inactive)"),
    ("c1ccc2c(c1)SC1Sc3ccccc3[S+]21 (stereo unspecified)", "27 µM (inactive)"),
    ("CCOC(=O)c1c2ccccc2n2c(=O)n(-c3ccccc3)nnc12", "> 100 µM (inactive)"),
    ("Cc1cc(-c2nc3ccc(F)cc3s2)ccc1NC(=O)[C@H](C)N", "4.56 µM (inactive)"),
    ("COC(=O)C1=C(C(=O)OC)C2OC1C1C2C2(C)C(C)=C(C)C1(C)[S+]2[O-] (stereo unspecified)", "15.5 µM (inactive)"),
    ("COC1=CCC=C(C[C@@H]2NCCc3cc(OC)c(OC)cc32)C1", "> 100 µM (inactive)"),
]

----------
system: COLO 205; assay: NCI tumour cell line growth inhibition, 48 h
Activity calls are given as the source filed them. Cut-off read from the data, not from the text of the source: active = GI50 up to about 1.1 µM and inactive = higher.
Classes used: active, inactive

# MOLECULE, SUBJECT OF TEST, ASSIGNED CATEGORY
data = [
    ("NC(=O)NNC(=O)c1nc[nH]c1[N+](=O)[O-]", "COLO 205", "inactive"),
    ("O=C(NCCC1([N+](=O)[O-])CCN(C(=O)c2ccccc2)CC1)c1ccccc1", "COLO 205", "inactive"),
    ("O=S(=O)(Nc1nccs1)c1ccc([As](=O)(O)O)cc1", "COLO 205", "inactive"),
    ("CNc1cccc(-c2cc(O)c3cc4c(cc3n2)OCO4)c1", "COLO 205", "active"),
    ("COc1cc2cc(C(=O)N3CC(CCl)c4ccccc43)[nH]c2c(OC)c1OC (stereo unspecified)", "COLO 205", "inactive"),
    ("O=C(Nc1cc(Cl)c(Cl)cc1Cl)C(=O)C1C=CCS1(=O)=O (stereo unspecified)", "COLO 205", "inactive"),
    ("CC(C)c1ccc2c(c1)CCC1C(C)(CN)CCCC21C (stereo unspecified)", "COLO 205", "active"),
    ("N/C(=N\\O)NCCN1CCCCCCC1", "COLO 205", "inactive"),
    ("Cc1cccc2c1NC(=O)/C2=N\\Nc1ccccc1[N+](=O)[O-]", "COLO 205", "inactive"),
    ("O=C1OCC(O)=C1C(c1ccc(Cl)cc1)c1cc2c(cc1O)OCO2 (stereo unspecified)", "COLO 205", "inactive"),
    ("O=C(O)C(=Cc1ccc(-c2ccc([N+](=O)[O-])cc2)o1)C(=O)O", "COLO 205", "inactive"),
]

----------
test system: MOLT-4; assay: NCI tumour cell line growth inhibition, 48 h
Activity calls are given as the source filed them. Rule as the data show it: active = GI50 up to about 1.1 µM and inactive = higher.
Classes used: y = active, n = inactive

# MOLECULE, ASSIGNED CATEGORY
measured = [
    ("Cc1cccc(Cl)c1NC(=O)c1cccc([N+](=O)[O-])c1O", "n"),
    ("CCOC(=O)[C@H](CCCNC(=O)OC(C)(C)C)NCc1ccc(OC)c(OC)c1", "n"),
    ("CC(C)(C)[Si](C)(C)OC1CCOC1(O)c1ccccn1 (centres undefined)", "n"),
    ("CCOC(=O)C1=C(Nc2ccc(Br)cc2)OC/C1=N\\NC(=O)c1ccccc1O", "n"),
    ("CC[C@H](C)C1=C(O)[N@+]2([O-])Oc3ccc(-c4c(O)c(O)c(-c5ccc(O)cc5)c(OC(C)=O)c4OC(C)=O)cc3O[C@]2([C@@H](C)CC)C(=O)N1O", "n"),
    ("CCOC(=O)C(CC(C)C)NC(=O)CSc1nnc(COc2ccc(Cl)cc2)n1-c1ccccc1 (centres undefined)", "n"),
    ("CCOc1ccccc1NC(=O)C(=O)C1C(=O)Nc2ccccc2[S+]1[O-] (centres undefined)", "n"),
    ("Cc1cc(N(CCC#N)CCC#N)ccc1/C=N/NC(=O)c1cc(Cl)ccc1O", "n"),
    ("CCC1C(c2ccccc2O)c2cc3c(cc2OC1N1CCOCC1)OCO3 (centres undefined)", "n"),
    ("COc1cccc(C2c3cc4c(cc3OC(NNc3ccccc3)C2C)OCO4)c1O (centres undefined)", "n"),
    ("C[C@H]1CCC/C=C/[C@@H]2C[C@H](OC(=O)CN(C)C)C[C@H]2[C@H](O)/C=C/C(=O)O1", "y"),
    ("COc1ccc2nc(N/N=C/c3sccc3C)cc(C)c2c1", "n"),
    ("COc1c2c(c(O)c3c4c(c(C)cc13)C1OC3(C(OC)OC5CC(C)(O)C(OC6CC(C)(O)C(O)C(C)O6)C(C)O5)OC1C(OC)(O4)C31CO1)C(=O)C(O)CC2OC1CC(C)(O)C(OC(C)=O)C(C)O1 (centres undefined)", "y"),
    ("CC1CCC(O)/C=C/C(=O)OC(C)C(O)/C=C/C(=O)O1 (centres undefined)", "n"),
    ("NC(=S)N1N=C(c2ccc3c(c2)CCC3)CC1c1ccccc1 (centres undefined)", "n"),
    ("O=C(O)c1cc(NC2=C(Cl)C(=O)c3c(O)ccc(O)c3C2=O)ccc1O", "n"),
    ("Oc1cc(C2OCCCO2)cc(O)c1O", "n"),
    ("Cc1cccc(NC(=O)C(=O)C(C(=O)c2ccc3ccccc3c2)C2OC(=O)c3ccccc32)c1C (centres undefined)", "n"),
    ("COc1ccc(C(SC2C(O)C(CO)OC2n2ccc(N)nc2=O)(c2ccccc2)c2ccc(OC)cc2)cc1 (centres undefined)", "n"),
    ("O=C(c1ccco1)N(C(=S)OCc1ccccn1)c1ccccc1", "n"),
    ("Cc1c(O)c(OC2OC(CO)C(O)C(O)C2O)cc2c1CC[C@@H]1C2(C)C(=O)C[C@]2(C)[C@@H]([C@@](C)(O)C(O)/C=C/C(C)(C)O)[C@H](O)C[C@@]12C (some centres undefined)", "n"),
    ("CC1CCCc2c(-c3ccc(Cl)cc3)nc(N)c(C#N)c21 (centres undefined)", "n"),
    ("COc1ccccc1/N=N/C(C(=O)c1ccccc1)C(=O)c1ccccc1", "n"),
    ("Oc1cc(-c2ccccc2)nc2c(S)cccc12", "n"),
    ("CCC(C)(C)/C(CC(O)(C(F)(F)F)C(F)(F)F)=N\\O", "n"),
    ("C[C@H](CC[C@@H](O)C(C)(C)O)[C@H]1CC[C@@]2(C)[C@@H]3CC=C4[C@@H](CC[C@H](O)C4(C)C)[C@]3(C)C(=O)C[C@]12C", "n"),
    ("COc1ccc(CC(=O)NCCc2ccc(OC)c(OC)c2OC)cc1", "n"),
    ("CC(=O)[C@]12OC(=O)C3=C1[C@H](CC[C@@H]3C)[C@@H](C)C[C@H]2C=C(C)C", "n"),
    ("CO/C(=N\\N=C\\c1ccc(OC)cc1OC)c1ccncc1", "n"),
    ("C#CCn1c(=O)c(C#N)c(O)c2cc3ccccc3nc21", "n"),
    ("OCCOCn1nc(-c2ccccc2)nc1-c1cnccn1", "n"),
    ("O=C(/N=N/c1ccc([N+](=O)[O-])cc1)NNc1ccc([N+](=O)[O-])cc1", "n"),
    ("CCOC(=O)C1(C(=O)OCC)CCCN1C(=O)[C@H](CNC(=O)OC(C)(C)C)NC(=O)OCc1ccccc1", "n"),
    ("COC1(OC)CC2C(=O)N(Cc3ccccc3)C1CC2S(=O)(=O)c1ccccc1 (centres undefined)", "n"),
    ("COc1cc2ccc3c4cc(OC)c(OC(C)C)cc4cnc3c2cc1OC", "n"),
    ("CCN(CC)Cc1ccc2cccnc2c1O", "n"),
    ("CC12CCC(CC(=O)/C1=C(/Br)I)C2(C)C (centres undefined)", "n"),
    ("C/N=c1\\ss/c(=N\\C(=S)N(C)C)n1C", "n"),
    ("C#CCN(C(=O)C(F)(F)F)c1ccc(C(=O)c2ccc(N(CC#C)C(=O)C(F)(F)F)cc2)cc1", "n"),
]

The values you see were collected from ChEMBL document CHEMBL1201862.
